# TARGET_OF_ASSAY: EPHB1 (UniProt P54762)
# Sequence (P54762 whole entry, looked up): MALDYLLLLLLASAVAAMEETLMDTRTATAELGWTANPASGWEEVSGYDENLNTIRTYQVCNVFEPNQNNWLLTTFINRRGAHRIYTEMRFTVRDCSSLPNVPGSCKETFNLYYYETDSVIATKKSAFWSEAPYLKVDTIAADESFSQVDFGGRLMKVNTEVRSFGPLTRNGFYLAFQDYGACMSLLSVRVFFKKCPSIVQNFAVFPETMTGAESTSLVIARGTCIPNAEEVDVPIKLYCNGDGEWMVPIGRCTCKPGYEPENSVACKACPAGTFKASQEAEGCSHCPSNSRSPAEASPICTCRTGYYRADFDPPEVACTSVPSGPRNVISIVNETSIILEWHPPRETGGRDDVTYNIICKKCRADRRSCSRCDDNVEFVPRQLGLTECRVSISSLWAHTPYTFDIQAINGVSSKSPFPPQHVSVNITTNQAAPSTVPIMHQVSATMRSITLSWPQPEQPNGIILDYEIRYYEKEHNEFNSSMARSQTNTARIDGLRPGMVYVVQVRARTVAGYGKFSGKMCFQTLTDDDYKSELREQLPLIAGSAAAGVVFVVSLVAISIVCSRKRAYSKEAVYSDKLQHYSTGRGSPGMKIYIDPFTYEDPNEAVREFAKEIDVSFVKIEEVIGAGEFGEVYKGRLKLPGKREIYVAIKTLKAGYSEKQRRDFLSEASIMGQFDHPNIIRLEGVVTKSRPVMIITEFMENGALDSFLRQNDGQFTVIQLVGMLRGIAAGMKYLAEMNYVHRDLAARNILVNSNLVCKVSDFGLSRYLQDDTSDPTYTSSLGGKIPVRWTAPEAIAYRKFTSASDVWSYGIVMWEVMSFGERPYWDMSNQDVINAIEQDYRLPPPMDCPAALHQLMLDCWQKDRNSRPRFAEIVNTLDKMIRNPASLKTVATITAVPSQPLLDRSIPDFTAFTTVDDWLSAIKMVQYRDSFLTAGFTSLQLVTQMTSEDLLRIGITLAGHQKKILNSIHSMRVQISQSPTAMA
# ASSAY_OVERVIEW: phosphorylation enrichment, bacterial display (enrichment ratio); higher = better substrate or ligand; peptides without Tyr show the background;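 also: 11-residue human phosphosite peptides and single-mutation variants displayed on the E. coli surface, counted by deep sequencing, each peptide's frequency after selection divided by its frequency in the unselected input library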;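 also: frequency after pTyr selection over input frequency; kinase dosed for 20-30% of maximal phosphorylation in three min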
phosphorylation enrichment below 0.5 gives Criterion not met; phosphorylation enrichment at or above it gives Criterion met.

[
  {
    "SEQUENCE_RECORD": "SKDSAYVTWEP",
    "CLASS_NAME": "Criterion met"
  },
  {
    "SEQUENCE_RECORD": "QADVVYVNTQL [MERTK_Y872_I871V]",
    "CLASS_NAME": "Criterion met"
  },
  {
    "SEQUENCE_RECORD": "SSAETYSRMRL [NBEAL2_Y1835]",
    "CLASS_NAME": "Criterion not met"
  },
  {
    "SEQUENCE_RECORD": "ALAHKYDGGGG [HBB_Y146_H147D]",
    "CLASS_NAME": "Criterion not met"
  },
  {
    "SEQUENCE_RECORD": "ECKASYPGKIT [PRSS3_Y232]",
    "CLASS_NAME": "Criterion not met"
  },
  {
    "SEQUENCE_RECORD": "FADIAYNFRHR [PAH_Y166_G171R_YF]",
    "CLASS_NAME": "Criterion not met"
  },
  {
    "SEQUENCE_RECORD": "QDLRLYRPHLA [BTK_Y617_G613D]",
    "CLASS_NAME": "Criterion met"
  },
  {
    "SEQUENCE_RECORD": "LNPFIYSLRNC [OR1A2_Y288_W293C]",
    "CLASS_NAME": "Criterion met"
  },
  {
    "SEQUENCE_RECORD": "RPCVVYGGADI [DDX3X_Y301]",
    "CLASS_NAME": "Criterion met"
  },
  {
    "SEQUENCE_RECORD": "FSGQVYRQRRK [TH_Y230_D227G]",
    "CLASS_NAME": "Criterion met"
  },
  {
    "SEQUENCE_RECORD": "QPDFLYDHIQP [TRRAP_Y862]",
    "CLASS_NAME": "Criterion met"
  },
  {
    "SEQUENCE_RECORD": "WFPANYVKLLS [ITSN1_Y1132]",
    "CLASS_NAME": "Criterion met"
  },
  {
    "SEQUENCE_RECORD": "SSTAMYSAAGR [PSMB1_Y8_P11A]",
    "CLASS_NAME": "Criterion not met"
  },
  {
    "SEQUENCE_RECORD": "QEALEYFMKQV [PIK3CA_Y1038_M1043V]",
    "CLASS_NAME": "Criterion not met"
  },
  {
    "SEQUENCE_RECORD": "YCRHNYGAVES [HLA-DRB1_Y112_V114A]",
    "CLASS_NAME": "Criterion met"
  },
  {
    "SEQUENCE_RECORD": "IFGVSYDEFRF [CFTR_Y512_YF]",
    "CLASS_NAME": "Criterion not met"
  },
  {
    "SEQUENCE_RECORD": "GGYNNYGYGSD [HNRNPH3_Y159_N163S]",
    "CLASS_NAME": "Criterion met"
  },
  {
    "SEQUENCE_RECORD": "MDFRSYPREFG [RBM10_Y44_YF]",
    "CLASS_NAME": "Criterion not met"
  },
  {
    "SEQUENCE_RECORD": "IRNRDYDDIDD [TTYH2_Y424_T419I]",
    "CLASS_NAME": "Criterion not met"
  },
  {
    "SEQUENCE_RECORD": "LNPLIYTLRNA [OR4C46_Y285_K288R]",
    "CLASS_NAME": "Criterion met"
  },
  {
    "SEQUENCE_RECORD": "EKLQKYYRKNP [EHHADH_Y682_Q685K]",
    "CLASS_NAME": "Criterion not met"
  },
  {
    "SEQUENCE_RECORD": "VFSATYHPDHW [EFCAB12_Y544_P541S_YF]",
    "CLASS_NAME": "Criterion met"
  },
  {
    "SEQUENCE_RECORD": "CRAVKYLQMVG [AVPR2_Y117]",
    "CLASS_NAME": "Criterion met"
  },
  {
    "SEQUENCE_RECORD": "TLARLYHPDST [LRIG1_Y1029]",
    "CLASS_NAME": "Criterion not met"
  },
  {
    "SEQUENCE_RECORD": "FNNPAYFVLEG [INPPL1_Y986_YF]",
    "CLASS_NAME": "Criterion met"
  },
  {
    "SEQUENCE_RECORD": "QEVLEYFMKQM [PIK3CA_Y1038_A1035V]",
    "CLASS_NAME": "Criterion met"
  },
  {
    "SEQUENCE_RECORD": "DAICYYRMENA [NPHS2_Y195]",
    "CLASS_NAME": "Criterion met"
  },
  {
    "SEQUENCE_RECORD": "ADKAAYLQNLN [MYH1_Y389]",
    "CLASS_NAME": "Criterion not met"
  },
  {
    "SEQUENCE_RECORD": "DFPIGYPSFLA [TBCK_Y153_YF]",
    "CLASS_NAME": "Criterion not met"
  }
]
